# test.target: SARS-CoV-2 nsp14 MTase (Severe acute respiratory syndrome coronavirus 2, UniProt P0DTD1)
# assay: biochemical
# Assay type: biochemical
# run.parameters: IC50 (µM), nsp14 MTase activity, high-throughput screening follow-up
outcome.measure: IC50 (µM)
Please respond with the number in µM and leave the unit unwritten.

Query string: Note down IC50 recorded for O=c1cc(-c2ccc(O)cc2)oc2c(O)c(O)c(O)c(O)c12
Result string: 6

Query string: Please supply the value of reported IC50 for the item Nc1ncnc2c1ncn2[C@@H]1O[C@H](CSCc2ccc(Cl)cc2)[C@@H](O)[C@H]1O
Result string: 5

====

# test.target: SARS-CoV-2 nsp14 MTase (Severe acute respiratory syndrome coronavirus 2)
# assay: biochemical
# Type: biochemical
# run.parameters: compound 100µM; replicate experiment 1
outcome.measure: nsp14 Inhibition % (100µM) Exp 1 (%)
Unit % implied. Number only.

Query string: Please report the measured nsp14 Inhibition % (100µM) Exp 1 for NC(CCCC(N)P(=O)(O)c1ccccc1)P(=O)(O)c1ccccc1 (centres unmarked) tested on SARS-CoV-2 nsp14 MTase (Severe acute respiratory syndrome coronavirus 2).
Result string: 7

Query string: For SARS-CoV-2 nsp14 MTase (Severe acute respiratory syndrome coronavirus 2), give nsp14 Inhibition % (100µM) Exp 1 of the listed molecule: O=C(O)c1ccc(Nc2nc3ccccc3nc2C(=O)O)cc1
Result string: 50

Query string: Write down measured nsp14 Inhibition % (100µM) Exp 1 (SARS-CoV-2 nsp14 MTase (Severe acute respiratory syndrome coronavirus 2)) for this molecule. Nc1ncnc2c1ncn2C1OC(CO)C(NC(=O)C(N)Cc2ccccc2)C1O (centres unmarked)
Result string: 11

Query string: Give nsp14 Inhibition % (100µM) Exp 1; test system SARS-CoV-2 nsp14 MTase (Severe acute respiratory syndrome coronavirus 2); molecule COc1cc(N=Nc2ccccc2C(=O)O)cc(/C=N/NNC(N)=S)c1O
Result string: 84

Query string: Report value only: nsp14 Inhibition % (100µM) Exp 1, SARS-CoV-2 nsp14 MTase (Severe acute respiratory syndrome coronavirus 2), NS(=O)(=O)c1ccc(NC2OCC(O)C(O)C2O)cc1 (centres unmarked)
Result string: 5

Query string: Fetch value of nsp14 Inhibition % (100µM) Exp 1 on SARS-CoV-2 nsp14 MTase (Severe acute respiratory syndrome coronavirus 2) for OC1COC(n2cnc3c(=S)nc[nH]c32)C(O)C1O (centres unmarked) .
Result string: 18

Query string: Give reported nsp14 Inhibition % (100µM) Exp 1 for O=C1C2C3C=CC(O3)C2C(=O)N1/N=C/C(O)C(O)C(O)C(O)CO (centres unmarked) (SARS-CoV-2 nsp14 MTase (Severe acute respiratory syndrome coronavirus 2))
Result string: 4

Query string: Report the value of nsp14 Inhibition % (100µM) Exp 1 obtained on SARS-CoV-2 nsp14 MTase (Severe acute respiratory syndrome coronavirus 2) for O=S(=O)(O)c1cc(Cl)cc(N=Nc2ccc(O)cc2O)c1O .
Result string: 77

====

# test.target: SARS-CoV-2 nsp14 MTase (Severe acute respiratory syndrome coronavirus 2, UniProt P0DTD1)
# assay: biochemical
# Assay type: biochemical
# run.parameters: compound 100µM; replicate experiment 2
Where a SMILES comes first, the peptide text is derived from it. [ ]: non-standard residue; d: D form. The star is where a group is joined. Ac5c = NC1(C(=O)O)CCCC1; Cbz = O=C(OCc1ccccc1)*
outcome.measure: nsp14 Inhibition % (100µM) Exp 2 (%)
Number only, in %; omit the unit.

Query string: Find the measured nsp14 Inhibition % (100µM) Exp 2 of O=P(O)(O)OC[C@H]1O[C@@H](n2cnc3c(NCc4ccccc4)ncnc32)[C@H](O)[C@@H]1O and report it.
Result string: 33

Query string: Report measured nsp14 Inhibition % (100µM) Exp 2; entry is O=C(O)c1cc(=O)n(CCCCCCn2c(=O)cc(C(=O)O)[nH]c2=O)c(=O)[nH]1
Result string: −7

Query string: // Input: OC1COC(n2cnc3c(=S)nc[nH]c32)C(O)C1O (stereo not drawn) . Output its nsp14 Inhibition % (100µM) Exp 2 only.
Result string: 7

Query string: Answer with reported nsp14 Inhibition % (100µM) Exp 2 of NC(CCCNc1nc(O)c(-c2ccccc2)c(=O)[nH]1)C(=O)O (stereo not drawn)
Result string: −3

Query string: Write down nsp14 Inhibition % (100µM) Exp 2 measured for item O=C(O)/C=C\C(=O)NCC1CCC(CNC(=O)/C=C\C(=O)O)CC1 (stereo not drawn)
Result string: −1

Query string: Fill in reported nsp14 Inhibition % (100µM) Exp 2 for this entry: O=C(O)CNC(=O)C1(NC(=O)CNC(=O)OCc2ccccc2)CCCC1 [NSC80136] (Cbz-Gly-[Ac5c]-Gly-OH)
Result string: 2

Query string: Recall and state the measured nsp14 Inhibition % (100µM) Exp 2 for O=C(CN1CCOCC1)C(O)C(O)C(O)CO (stereo not drawn) .
Result string: 61

Query string: Indicate its recorded nsp14 Inhibition % (100µM) Exp 2; the compound in question is O=C(N/N=C/[C@H](O)[C@H]1OC(=O)[C@@H](O)[C@H]1O)c1ccncc1
Result string: 10

Query string: Tell us which nsp14 Inhibition % (100µM) Exp 2 value is on record for COc1cc(N=Nc2ccccc2C(=O)O)cc(/C=N/NNC(N)=S)c1O
Result string: 82

Query string: Answer with the recorded nsp14 Inhibition % (100µM) Exp 2 for the compound listed here: CN(CC(O)C(O)C(O)C(O)CO)CN1C(=O)C(=O)c2ccccc21 (stereo not drawn)
Result string: 36

Query string: Identify measured nsp14 Inhibition % (100µM) Exp 2 corresponding to O=C(O)C(Cc1ccc(O)cc1)NC(c1ccccc1)P(=O)(O)O (stereo not drawn)
Result string: −3

Query string: Return the recorded nsp14 Inhibition % (100µM) Exp 2 value; entry: CC(C)=CCNc1ncnc2c1ncn2[C@@H]1O[C@H](COP(=O)(O)O)[C@@H](O)[C@H]1O
Result string: 0

Query string: For NC(CCCC(N)P(=O)(O)c1ccccc1)P(=O)(O)c1ccccc1 (stereo not drawn) , write its nsp14 Inhibition % (100µM) Exp 2.
Result string: −11

Query string: Please report nsp14 Inhibition % (100µM) Exp 2 for the following compound: O=C1C2C3C=CC(O3)C2C(=O)N1/N=C/C(O)C(O)C(O)C(O)CO (stereo not drawn)
Result string: −4

Query string: Quick one: give measured nsp14 Inhibition % (100µM) Exp 2 for O=P(O)(O)OC1OC(n2cnc3c(NCc4ccc(F)cc4)ncnc32)C(O)C1O (stereo not drawn)
Result string: 2

Query string: Check the records and state nsp14 Inhibition % (100µM) Exp 2 for OCCNc1ncnc2c1ncn2[C@@H]1O[C@H](CO)[C@@H](O)[C@H]1O
Result string: −4

Query string: Provide measured nsp14 Inhibition % (100µM) Exp 2 value, entry: O=C(NNCNNC(=O)c1ccncc1)c1ccncc1
Result string: −2

Query string: Annotate the compound O=C(CCCCn1ccc(=O)[nH]c1=O)Nc1ccc(C(=O)O)c(O)c1 with its measured nsp14 Inhibition % (100µM) Exp 2.
Result string: −1
